Provenance of the data: patent US20190367619A1

Target: T1, human galectin-10-His (human)
T1 construct: The last M of the tag may be Met1 of galectin-10; also called humanGal10-His; hGal10
T1 chain: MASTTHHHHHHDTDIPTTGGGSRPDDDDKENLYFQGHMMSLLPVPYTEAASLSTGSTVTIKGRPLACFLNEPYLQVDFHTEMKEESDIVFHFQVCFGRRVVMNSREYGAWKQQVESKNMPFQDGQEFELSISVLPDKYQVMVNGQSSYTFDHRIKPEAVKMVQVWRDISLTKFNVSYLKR
Assay: SPR Biacore T3000, mouse IgG1 captured
metric.name: Kd (nM)
Write down the numeric answer in nM and omit the unit.

Please fill in: Kd reported for 10D02 mouse IgG1 (antibody, V domains shown, VH and VL cloned in frame with mouse IgG1 constant domains; also called 10D02 mIgG1) VH: EVQLVESGGGLVQPGGSLRVSCAASGFTFSSYYMSWVRQAPGKGLEWVSGIVTGGGRTHYTDSVKGRFTITRDNAKNTLYLQMNSLRPEDTALYYCARVNGVVTNYDYWGQGTQVTVSS VL: QAVLTQPPSVSGSPGKTVTISCAGTSSDVGYGNYVSWYQQLPGMAPKLLIYDVNKRASGITDRFSGSKSGNTASLTISGLQSEDEADYFCASYRSPNNVVFGQGTHLTVL = 1.6

Form field Kd, entry 11F12 mouse IgG1 (antibody, V domains shown, VH and VL cloned in frame with mouse IgG1 constant domains; also called 11F12 mIgG1) VH: QVQLQESGGGLVQPGGSLRLSCAASGFTFSTNYMNWVRQAPGKGLEWVSGITSGGGRTYYADSVKGRFTISRDNAKNTLYLQMNSLKPEDTALYYCARTDHAWLDAWGQGTLVTVSS VL: HSAVTQPPSVSGTLGKTVTISCAGTSSDVGYGNYVSWYQHLPGTAPKLLIYAVSTRASGVPDRFSGSKSGNTASLTISGLQSEDEGDYYCASYSVRNNVVFGGGTRLTVL : 0.7

Input 8H11 mouse IgG1 (antibody, V domains shown, VH and VL cloned in frame with mouse IgG1 constant domains; also called 8H11 mIgG1) VH: ELQLVESGGGLVQPGGSLRLSCAASGFTFSTNYMNWVRQAPGKGLEWVSGITSGGGRTYYADSVKGRFTISRDNAKNTLYLQMNSLKPEDTALYYCARTDHAWLDAWGQGTLVTVSS VL: QAGLTQPPSVSGTLGKTVTISCAGTSSDVGYGNYVSWYQQLPGTAPKLLIYAVSTRASGIPDRFSGSKSGNTASLTISGLLSEDEADYYCASYRSSNNYVFGGGTKLTVL . Output Kd: 0.9

What the record says about 7B07 mouse IgG1 (antibody, V domains shown, VH and VL cloned in frame with mouse IgG1 constant domains; also called 7B07 mIgG1) VH: QVQLVESGGGLVQPGGSLRLSCAASGFTFRSYDMSWVRQAPGKGPEWVSAIKNGGGITYYADSVKGRFTISRDNAKNTLYLQMNSLKPEDTAVYYCATTHGIGTLGFGSWGQGTQVTVSS VL: SYELTQSASVSVALTQTAKITCDGNNIGSKSAQWYQQKPGQAPALVIYADEYRPEGIPERFSGSNSGNTATLIISGAQAEDEADYYCQVWDGSAAVFGRGTHLTVL : Kd is 1.4

Reported Kd of 10B02 mouse IgG1 (antibody, V domains shown, VH and VL cloned in frame with mouse IgG1 constant domains; also called 10B02 mIgG1) VH: QVQLVESGGGLVQPGGSLRVSCAASGFTFSYHYMNWVRQAPGKGLEWVSGISAGGGRTYYADSVKGRFTISRDNAKNTLYLQMNSLNAEDTALYYCARVHGITNDYWGQGTQVTVSS VL: QSALTQPPSVSGSPGKTVTISCAGTSSDVGYGNYVSWYQQLPGMAPKLLIYEVNKRASGITDRFSGSKSGNTAFLTISGLQSEDEADYYCASYRNSNNWVFGGGTHLTVL : 1.5
